Hello, the source for this data is the supplement of paper PMC10307832, in case you need it.

# System: NCI-H727
# test: relative viability (nuclei count vs DMSO), 5 days (fraction); higher = more cells survive
# condition context: first compound 0.08 µM
Item-by-item account of relative viability
observed property: relative viability

1. CCCCCCCCCCCC1=C(O)C(=O)C=C(O)C1=O [Embelin] + CC(=O)c1c(C)c2cnc(Nc3ccc(N4CCNCC4)cn3)nc2n(C2CCCC2)c1=O [Palbociclib] (partner 0.5 µM) | 0.657
2. CCCCCCCCCCCC1=C(O)C(=O)C=C(O)C1=O [Embelin] + C[C@@H](Oc1cc(-c2cnn(C3CCNCC3)c2)cnc1N)c1c(Cl)ccc(F)c1Cl [Crizotinib] (partner 1 µM) | 0.938
3. CCCCCCCCCCCC1=C(O)C(=O)C=C(O)C1=O [Embelin] + CC(C)C[C@H](NC(=O)[C@H](Cc1ccccc1)NC(=O)c1cnccn1)B(O)O [Bortezomib] (partner 0.002 µM) | 0.813
4. CCCCCCCCCCCC1=C(O)C(=O)C=C(O)C1=O [Embelin] + COc1cccc2cc(-c3nc([C@H]4CC[C@H](C(=O)O)CC4)n4ncnc(N)c34)[nH]c12 [OSI-027] (partner 0.5 µM) | 0.659

====

# Test system: NCI-H460
# test: relative viability (nuclei count vs DMSO), 5 days (fraction); higher = more cells survive
# condition context: first compound 0.3162 µM
Sorting guide: entries reporting relative viability beneath 0.6 go in the Yes pile, the rest go in the No pile.

1. CC(C)Oc1cc(Nc2nc(N[C@@H](C)c3ccc(F)cn3)ncc2Cl)n[nH]1 [AZ23] + CS(=O)(=O)N1CCN(Cc2cc3nc(-c4cccc5[nH]ncc45)nc(N4CCOCC4)c3s2)CC1 [Pictilisib] (partner 1 µM) | Yes
2. CC(C)Oc1cc(Nc2nc(N[C@@H](C)c3ccc(F)cn3)ncc2Cl)n[nH]1 [AZ23] + CC(=O)c1c(C)c2cnc(Nc3ccc(N4CCNCC4)cn3)nc2n(C2CCCC2)c1=O [Palbociclib] (partner 0.5 µM) | Yes
3. CC(C)Oc1cc(Nc2nc(N[C@@H](C)c3ccc(F)cn3)ncc2Cl)n[nH]1 [AZ23] + Cc1cc(Nc2cc(N3CCN(C)CC3)nc(Sc3ccc(NC(=O)C4CC4)cc3)n2)n[nH]1 [Tozasertib] (partner 0.1 µM) | Yes
4. CC(C)Oc1cc(Nc2nc(N[C@@H](C)c3ccc(F)cn3)ncc2Cl)n[nH]1 [AZ23] + Cc1nc(Nc2ncc(C(=O)Nc3c(C)cccc3Cl)s2)cc(N2CCN(CCO)CC2)n1 [Dasatinib] (partner 0.075 µM) | Yes
5. CC(C)Oc1cc(Nc2nc(N[C@@H](C)c3ccc(F)cn3)ncc2Cl)n[nH]1 [AZ23] + C[C@]1(O)C[C@@H](c2nc(-c3ccc4ccc(-c5ccccc5)nc4c3)c3c(N)nccn32)C1 [Linsitinib] (partner 1 µM) | No

====

# System: NCI-H1437
# test: relative viability (nuclei count vs DMSO), 5 days (fraction); higher = more cells survive
# condition context: first compound 0.4 µM
// assign label 1 if relative viability falls strictly below 0.4, else label 0 (ties count as label 0)

1) C[C@@H]1CN(CC(=O)Nc2ccc3c(c2)Cc2cccc(-c4cc(=O)cc(N5CCOCC5)o4)c2S3)C[C@H](C)O1 + C[C@]1(O)C[C@@H](c2nc(-c3ccc4ccc(-c5ccccc5)nc4c3)c3c(N)nccn32)C1 [Linsitinib] (partner 1 µM) | label 0
2) COc1cc(N2CCC(C(N)=O)CC2)ccc1Nc1nc(N)c(Cl)c(Nc2ccccc2S(=O)(=O)C(C)C)n1 [HG-5-88-01] + Cc1cc(Nc2cc(N3CCN(C)CC3)nc(Sc3ccc(NC(=O)C4CC4)cc3)n2)n[nH]1 [Tozasertib] (partner 0.1 µM) | label 1
3) COc1cc(N2CCC(C(N)=O)CC2)ccc1Nc1nc(N)c(Cl)c(Nc2ccccc2S(=O)(=O)C(C)C)n1 [HG-5-88-01] + Cc1nc(Nc2ncc(C(=O)Nc3c(C)cccc3Cl)s2)cc(N2CCN(CCO)CC2)n1 [Dasatinib] (partner 0.075 µM) | label 1
4) COc1cc(N2CCC(C(N)=O)CC2)ccc1Nc1nc(N)c(Cl)c(Nc2ccccc2S(=O)(=O)C(C)C)n1 [HG-5-88-01] + CC1(C)CCC(c2ccc(Cl)cc2)=C(CN2CCN(c3ccc(C(=O)NS(=O)(=O)c4ccc(N[C@H](CCN5CCOCC5)CSc5ccccc5)c(S(=O)(=O)C(F)(F)F)c4)cc3)CC2)C1 [Navitoclax] (partner 0.5 µM) | label 0
5) COc1cc(N2CCC(C(N)=O)CC2)ccc1Nc1nc(N)c(Cl)c(Nc2ccccc2S(=O)(=O)C(C)C)n1 [HG-5-88-01] + CC(=O)c1c(C)c2cnc(Nc3ccc(N4CCNCC4)cn3)nc2n(C2CCCC2)c1=O [Palbociclib] (partner 0.5 µM) | label 1
6) C[C@@H]1CN(CC(=O)Nc2ccc3c(c2)Cc2cccc(-c4cc(=O)cc(N5CCOCC5)o4)c2S3)C[C@H](C)O1 + Cc1nc(Nc2ncc(C(=O)Nc3c(C)cccc3Cl)s2)cc(N2CCN(CCO)CC2)n1 [Dasatinib] (partner 0.075 µM) | label 1
7) COc1cc(N2CCC(C(N)=O)CC2)ccc1Nc1nc(N)c(Cl)c(Nc2ccccc2S(=O)(=O)C(C)C)n1 [HG-5-88-01] + Nc1ncn([C@H]2C[C@H](O)[C@@H](CO)O2)c(=O)n1 [Decitabine] (partner 2 µM) | label 0
